From: the DeepSol protein solubility set

procedure text: soluble on expression in E. coli; label from the status in PepcDB or PDB records

- input sequence: "MSLTDRTIGEAAELLGVTTRTLRHWDSIGLLQPSWRTTTDYRLYTEDDVERALQILIYRAAGIGLKDIAEVLDQPDSANQHLRRQRELLVEQIGQLHRMVRAVDEILGKDAISVKEKIEIFGEDLPKYQEEAFQRWGDTPEWKESQKIQEKMTKEDFQRAKDEHEGFVEKLIDASLRGIAPGSAEGNELALAHRASIGQWYTVSANKQVILARMYVEDERFNETYKGHASYLLTLIEALAQVEGVDLENEGHHHHHH"
  soluble on expression in E. coli: "not soluble"
- input sequence: "MNPNPNVKYPIEGNQNVHFIKNTITKANILVGDYSYYDAKDGETFEDRVLHHYEFLGDRLIIGKFCCIASGVTFIMNGANHRMDGFSAYPFNIFGNGWEKYTPNLSDLPYKGDTVIGNDVWIGMDATIMPGIKIGDGAIIAAKSVVTRDVAPYTIVGGNPANKIRERFSNAIIEELLQIQWWHFDIEKITENIGAIVQGNIEPLRKLKRE"
  soluble on expression in E. coli: "not soluble"
